# Measured target: binding of FAM19A5 protein to LRRC4B (amino acids 453-576)-hFc (Homo sapiens, UniProt Q7Z5A7)
# Sequence (Q7Z5A7 44-132): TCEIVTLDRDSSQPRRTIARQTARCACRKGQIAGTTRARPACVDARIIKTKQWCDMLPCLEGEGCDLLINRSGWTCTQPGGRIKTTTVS
# Run description: Competitive inhibition assay, plate coated with LRRC4B (amino acids 453-576)-hFc, peptides at 20 nM
# Settings: Table 10; alanine/asparagine mutants
Parameter: Inhibition rate (%) LRRC4B (amino acids 453-576)-hFc. Scope: all listed entries.
Number only, in %; omit the unit.

[[record]]
residue_string = "GYTYATTVTVETLETQPGEE [FB-20[A4]]"
measurement_unit = "%"
reported_result = 1.5

[[record]]
residue_string = "GATYFTTVTVETLETQPGEE [FB-20[A1]]"
measurement_unit = "%"
reported_result = 3.6

[[record]]
residue_string = "GYTYFTTVTVETLATQPGEE [FB-20[A13]]"
measurement_unit = "%"
reported_result = 27.2

[[record]]
residue_string = "GYTAFTTVTVETLETQPGEE [FB-20[A3]]"
measurement_unit = "%"
reported_result = 0.0

[[record]]
residue_string = "GYTYFTAVTVETLETQPGEE [FB-20[A6]]"
measurement_unit = "%"
reported_result = 11.0


Which Inhibition rate (%) LRRC4B (amino acids 453-576)-hFc value is on record for GNTYFTTVTVETLETQPGEE [FB-20[N1]] ?
3.1

Which Inhibition rate (%) LRRC4B (amino acids 453-576)-hFc value is on record for GYTYFTTVTVEALETQPGEE [FB-20[A11]] ?
50.3

Which Inhibition rate (%) LRRC4B (amino acids 453-576)-hFc value is on record for GYTYFTTVTVATLETQPGEE [FB-20[A10]] ?
6.4

Which Inhibition rate (%) LRRC4B (amino acids 453-576)-hFc value is on record for GYTYFTTVAVETLETQPGEE [FB-20[A8]] ?
−0.4

Which Inhibition rate (%) LRRC4B (amino acids 453-576)-hFc value is on record for GYTYFTNVTVETLETQPGEE [FB-20[N6]] ?
−0.4

Which Inhibition rate (%) LRRC4B (amino acids 453-576)-hFc value is on record for GYTYFTTNTVETLETQPGEE [FB-20[N7]] ?
8.3

Which Inhibition rate (%) LRRC4B (amino acids 453-576)-hFc value is on record for GYTYNTTVTVETLETQPGEE [FB-20[N4]] ?
2.5
